Assay: Oral pharmacokinetics in rats, plasma d-amphetamine by ELISA
Details: Oral, relative to amphetamine (first value where two are given)
# note: exactly 70% is not below, so it is criterion not met; use criterion met for Percent AUC strictly under it

Solved entries:
{"molecule": "CC(Cc1ccccc1)NC(=O)C(O)C(O)C(O)C(O)CO (stereo not drawn) [Gulonate-Amp]", "assignedCategory": "criterion met"}
{"molecule": "CC(C)CC(N)C(=O)NC(C)Cc1ccccc1 (stereo not drawn)", "assignedCategory": "criterion met"}
{"molecule": "C[C@@H](Cc1ccccc1)NC(=O)[C@@H](N)CCCCN", "assignedCategory": "criterion not met"}
{"molecule": "CC(Cc1ccccc1)NC(=O)C(N)Cc1cnc[nH]1 (stereo not drawn)", "assignedCategory": "criterion met"}
{"molecule": "CC(C)C[C@H](N)C(=O)N[C@@H](CCC(=O)O)C(=O)NC(C)Cc1ccccc1 (stereo partly drawn)", "assignedCategory": "criterion met"}

Q. I wonder whether CC(Cc1ccccc1)NC(=O)[C@H](Cc1ccccc1)NC(=O)[C@H](CCC(=O)O)NC(=O)[C@@H](N)CCC(=O)O (stereo partly drawn) has Percent AUC below 70%. Can you tell?
A. criterion met

Q. Input CC(Cc1ccccc1)NC(=O)C(N)CCC(=O)O (stereo not drawn)
A. criterion not met

Q. Also need CC(Cc1ccccc1)NC(=O)CNC(=O)CN (stereo not drawn) , thanks.
A. criterion not met

Q. Then this molecule: CC(Cc1ccccc1)NC(=O)[C@H](CCC(=O)O)NC(=O)[C@@H](N)CCC(=O)O (stereo partly drawn)
A. criterion met

Q. Repeat for the following molecule: CC(Cc1ccccc1)NC(=O)C(N)CO (stereo not drawn)
A. criterion not met

Q. Now this one: CC(Cc1ccccc1)NC(=O)[C@H](Cc1ccccc1)NC(=O)[C@@H](N)Cc1ccccc1 (stereo partly drawn)
A. criterion met
